# credit: patent US20230310428A1

# System: various mutants of kinase EGFR (BaF3 cell lines stably transfected with kinase) (Homo sapiens, UniProt P00533, L858R/T790M)
# Construct: expressed in transfected cells; host or cells: BaF3
# Sequence (P00533 25-1210 T790M/L858R): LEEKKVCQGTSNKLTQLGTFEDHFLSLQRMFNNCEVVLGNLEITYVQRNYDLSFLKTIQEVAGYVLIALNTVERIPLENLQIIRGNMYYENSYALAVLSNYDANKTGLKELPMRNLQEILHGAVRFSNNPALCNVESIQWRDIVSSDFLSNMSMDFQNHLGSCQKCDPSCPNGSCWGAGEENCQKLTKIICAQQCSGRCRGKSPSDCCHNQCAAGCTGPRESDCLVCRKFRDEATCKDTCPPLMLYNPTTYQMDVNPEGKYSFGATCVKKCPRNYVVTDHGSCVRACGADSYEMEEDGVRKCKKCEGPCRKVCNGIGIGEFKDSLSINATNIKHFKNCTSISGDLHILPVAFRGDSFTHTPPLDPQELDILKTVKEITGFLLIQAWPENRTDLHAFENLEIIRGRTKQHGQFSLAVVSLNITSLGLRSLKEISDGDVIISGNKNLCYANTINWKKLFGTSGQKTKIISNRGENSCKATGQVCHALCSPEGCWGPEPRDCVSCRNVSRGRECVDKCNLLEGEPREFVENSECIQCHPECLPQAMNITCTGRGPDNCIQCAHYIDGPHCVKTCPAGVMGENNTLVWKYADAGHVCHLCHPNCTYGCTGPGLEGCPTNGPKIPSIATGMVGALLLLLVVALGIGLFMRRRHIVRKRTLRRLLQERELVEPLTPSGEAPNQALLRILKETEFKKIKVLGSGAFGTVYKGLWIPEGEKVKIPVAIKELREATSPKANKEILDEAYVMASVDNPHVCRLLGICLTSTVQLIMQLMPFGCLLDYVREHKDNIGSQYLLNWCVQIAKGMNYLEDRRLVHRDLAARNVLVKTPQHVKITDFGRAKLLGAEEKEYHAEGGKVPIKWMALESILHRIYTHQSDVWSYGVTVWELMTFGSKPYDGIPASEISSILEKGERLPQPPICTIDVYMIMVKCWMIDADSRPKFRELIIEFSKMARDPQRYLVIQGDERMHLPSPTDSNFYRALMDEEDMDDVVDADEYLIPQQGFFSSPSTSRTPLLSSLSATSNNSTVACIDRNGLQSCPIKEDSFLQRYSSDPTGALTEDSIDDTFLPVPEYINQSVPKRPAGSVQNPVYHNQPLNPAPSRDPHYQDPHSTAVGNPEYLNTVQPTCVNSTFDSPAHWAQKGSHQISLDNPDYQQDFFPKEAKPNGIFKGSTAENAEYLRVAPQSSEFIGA
# Method Notes: Growth inhibitory activity of compounds on BaF3 cell lines stably transfected with kinase (MTS, 48 h)
# Assay type: cell-based
# Condition: BaF3 cells stably transfected with EGFR L858R/T790M, read-out: IC50, growth inhibition, L858R/T790M
Measured Metric: IC50

Ask: Given the compound CCN(c1c(Nc2nc(Nc3cc(C)c(N4CCC(N(C)C)CC4)cc3OC)ncc2Br)ccc2nccnc12)S(C)(=O)=O , what is its reported IC50?
Reply: ≤ 50 nM

Ask: Follow-up item: CN(c1c(Nc2nc(Nc3cnn(C)c3)ncc2Br)ccc2nccnc12)S(C)(=O)=O
Reply: ≤ 50 nM

Ask: Same read-out for COc1nc(N2CCN(C)CC2)ccc1Nc1ncc(Br)c(Nc2ccc3nccnc3c2N(C)S(C)(=O)=O)n1 ?
Reply: 50 to 500 nM

Ask: Follow-up entry: COc1cc(N2CCC(N(C)C)CC2)c(C)cc1Nc1ncc(C(F)(F)F)c(Nc2ccc3nccnc3c2N(C)S(C)(=O)=O)n1
Reply: ≤ 50 nM

Ask: Can you check C=Cc1cc(Nc2ncc(Br)c(Nc3ccc4nccnc4c3N(CC)S(C)(=O)=O)n2)c(OC(F)(F)F)cc1N1CCC(N2CCN(C)CC2)CC1 next?
Reply: 50 to 500 nM

Ask: Follow-up entry: CCc1cc(Nc2ncc(C3CC3)c(Nc3ccc4nccnc4c3N(C)S(C)(=O)=O)n2)c(OC)nc1N1CCC(N2CCN(C)CC2)CC1
Reply: 50 to 500 nM

Ask: Query COc1cc(N2CCC(N3CCN(C)CC3)CC2)c(CC2CC2)cc1Nc1ncc([N+](=O)[O-])c(Nc2ccc3nccnc3c2N(C)S(C)(=O)=O)n1 next
Reply: 50 to 500 nM

Ask: Now the compound CCc1cc(Nc2ncc(F)c(Nc3ccc4nccnc4c3N(C)S(C)(=O)=O)n2)c(OC)cc1N1CCN(C)CC1
Reply: 50 to 500 nM

Ask: Record: CCc1cc(Nc2ncc(Cl)c(Nc3ccc4nccnc4c3N(C)S(=O)(=O)C(F)(F)F)n2)c(OC)cc1N1CCC(N2CCN(C)CC2)CC1
Reply: 50 to 500 nM

Ask: Thanks! And CCc1cc(Nc2ncc(Br)c(Nc3ccc4nccnc4c3N(C3CC3)S(C)(=O)=O)n2)c(OC)cc1N1CCC(N(C)C)C1 (stereo not shown) ?
Reply: ≤ 50 nM

Ask: Cool, now COc1cc(N2CCN(C)CC2)c(C)cc1Nc1ncc(Cl)c(Nc2ccc3nccnc3c2N(C2CC2)S(C)(=O)=O)n1
Reply: ≤ 50 nM

Ask: Could you do the same for CCc1cc(Nc2ncc(C(F)(F)F)c(Nc3ccc4nccnc4c3N(C)S(C)(=O)=O)n2)c(OC)cc1N1CCN(C)CC1 , please?
Reply: ≤ 50 nM

Ask: One more compound: COc1cc(N2CCC(N3CCN(C)CC3)CC2)ccc1Nc1ncc(Br)c(Nc2ccc3nccnc3c2N(C)S(C)(=O)=O)n1
Reply: ≤ 50 nM

###

Give measured pIC50 for each item. Keep answers brief.
# System: various mutants of kinase EGFR (BaF3 cell lines stably transfected with kinase) (Homo sapiens)
# Construct: other: BaF3 cells stably transfected with EGFR Δ19Del; MTS, 48 h; other: BaF3 cell line stably transfected with EGFR Δ19Del
# Method Notes: Growth inhibitory activity of compounds on BaF3 cell lines stably transfected with kinase (MTS, 48 h)
# Format: cell-based
# Condition: BaF3 cells stably transfected with EGFR Δ19Del, read-out: IC50, growth inhibition, Δ19Del
pIC50: −log10 of the molar value.

Ask: Which value of pIC50 has been reported for CCN(c1c(Nc2nc(Nc3ccc(N4CCC(N5CCN(C)CC5)CC4)cc3OC)ncc2Cl)ccc2nccnc12)S(C)(=O)=O in the records?
Reply: 6.30 to 7.30

Ask: Proceed to COc1cc(N2CCC(N(C)C)C2)c(C)cc1Nc1ncc([N+](=O)[O-])c(Nc2ccc3nccnc3c2N(C)S(C)(=O)=O)n1 (stereo not shown)
Reply: 6.30 to 7.30

Ask: Would you kindly repeat that for CCN(c1c(Nc2nc(Nc3ccc(N4CCC(N5CCN(C)CC5)CC4)cc3OC)ncc2Br)ccc2nccnc12)S(C)(=O)=O ?
Reply: 6.30 to 7.30

Ask: Now give it for COc1cc(N2CCC(N(C)C)C2)c(C)cc1Nc1ncc(Cl)c(Nc2ccc3nccnc3c2N(C)S(=O)(=O)C(F)(F)F)n1 (stereo not shown) too.
Reply: 5.60 to 6.30

Ask: For CCc1cc(Nc2ncc(Cl)c(Nc3ccc4nccnc4c3N(C)S(=O)(=O)C(F)(F)F)n2)c(OC)nc1N1CCC(N2CCN(C)CC2)CC1 then?
Reply: 5.60 to 6.30

Ask: One more compound: COc1cc(N2CCN(C)CC2)c(C)cc1Nc1ncc([N+](=O)[O-])c(Nc2ccc3nccnc3c2N(C)S(C)(=O)=O)n1
Reply: 6.30 to 7.30

Ask: Another: COc1cc(N2CCN(C)CC2)ccc1Nc1ncc(Br)c(Nc2ccc3nccnc3c2N(C)S(C)(=O)=O)n1
Reply: 6.30 to 7.30

Ask: Then this compound: CCc1cc(Nc2ncc(Br)c(Nc3ccc4nccnc4c3N(C3CC3)S(C)(=O)=O)n2)c(OC(F)(F)F)cc1N1CCC(N2CCN(C)CC2)CC1
Reply: 6.30 to 7.30

Ask: Here is the next compound: CCc1cc(Nc2ncc(C#N)c(Nc3ccc4nccnc4c3N(C)S(C)(=O)=O)n2)c(OC)cc1N1CCC(N2CCN(C)CC2)CC1
Reply: 6.30 to 7.30

Ask: Record: COc1nc(N2CCN(C)CC2)ccc1Nc1ncc(Br)c(Nc2ccc3nccnc3c2N(C)S(C)(=O)=O)n1
Reply: 6.30 to 7.30

Ask: // repeat for CCN(c1c(Nc2nc(Nc3cc(C)c(N4CCN(C)CC4)cc3OC)ncc2Br)ccc2nccnc12)S(C)(=O)=O and report
Reply: 6.30 to 7.30

Ask: // same read-out, input: COc1cc(N2CCC(N3CCN(C)CC3)CC2)c(C(C)C)cc1Nc1ncc(C2CC2)c(Nc2ccc3nccnc3c2N(C)S(C)(=O)=O)n1
Reply: 6.30 to 7.30

Ask: One more compound: CCc1cc(Nc2ncc(C(F)(F)F)c(Nc3ccc4nccnc4c3N(C)S(C)(=O)=O)n2)c(OC)cc1N1CCN(C)CC1
Reply: 6.30 to 7.30

###

# System: various mutants of kinase EGFR (BaF3 cell lines stably transfected with kinase) (Homo sapiens, UniProt P00533, T790M/C797S, form not given)
# Construct: other: BaF3 cells stably transfected with EGFR Δ19Del/T790M/C797S; MTS, 48; other: BaF3 cell line stably transfected with EGFR Δ19Del/T790M/C7
# Sequence (P00533 with tags, fused parts or gaps DEL746-750/T790M/C797S, form open): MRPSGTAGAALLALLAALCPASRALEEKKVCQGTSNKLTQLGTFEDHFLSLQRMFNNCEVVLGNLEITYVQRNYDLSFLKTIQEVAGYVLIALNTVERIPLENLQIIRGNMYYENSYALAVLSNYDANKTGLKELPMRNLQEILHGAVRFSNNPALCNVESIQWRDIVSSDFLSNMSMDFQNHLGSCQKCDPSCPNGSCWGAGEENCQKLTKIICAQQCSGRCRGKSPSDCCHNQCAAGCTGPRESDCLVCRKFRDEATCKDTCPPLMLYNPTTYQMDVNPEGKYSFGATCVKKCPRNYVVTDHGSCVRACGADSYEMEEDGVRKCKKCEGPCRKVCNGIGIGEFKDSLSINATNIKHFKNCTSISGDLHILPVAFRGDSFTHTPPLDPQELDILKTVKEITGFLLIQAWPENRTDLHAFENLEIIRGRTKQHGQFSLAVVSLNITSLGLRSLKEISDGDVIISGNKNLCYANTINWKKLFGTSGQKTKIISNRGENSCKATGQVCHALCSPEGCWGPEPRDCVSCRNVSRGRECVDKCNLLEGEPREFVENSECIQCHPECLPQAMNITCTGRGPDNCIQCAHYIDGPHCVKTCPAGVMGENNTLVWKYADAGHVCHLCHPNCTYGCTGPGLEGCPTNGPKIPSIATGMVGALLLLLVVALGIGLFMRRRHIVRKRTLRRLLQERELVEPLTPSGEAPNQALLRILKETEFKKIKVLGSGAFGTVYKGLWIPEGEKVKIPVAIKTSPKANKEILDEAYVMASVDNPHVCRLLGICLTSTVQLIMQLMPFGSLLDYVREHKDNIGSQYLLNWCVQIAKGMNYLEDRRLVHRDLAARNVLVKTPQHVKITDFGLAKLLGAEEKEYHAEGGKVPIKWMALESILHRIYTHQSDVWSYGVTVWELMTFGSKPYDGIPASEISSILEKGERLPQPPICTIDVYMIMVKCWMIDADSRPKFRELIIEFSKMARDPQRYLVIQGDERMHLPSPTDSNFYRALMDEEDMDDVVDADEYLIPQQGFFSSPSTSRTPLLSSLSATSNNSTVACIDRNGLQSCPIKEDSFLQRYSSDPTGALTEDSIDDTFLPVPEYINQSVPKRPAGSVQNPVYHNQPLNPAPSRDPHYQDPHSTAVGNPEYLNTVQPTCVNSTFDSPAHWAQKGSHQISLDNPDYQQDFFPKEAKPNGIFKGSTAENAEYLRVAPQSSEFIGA
# Method Notes: Growth inhibitory activity of compounds on BaF3 cell lines stably transfected with kinase (MTS, 48 h)
# Type: cell-based
# Condition: BaF3 cell line stably transfected with EGFR Δ19Del/T790M/C797S, read-out: Δ19Del/T790M/ C797S growth inhibitory activity IC50
Measured Metric: IC50

Ask: Report IC50 for CCc1cc(Nc2ncc(C3CC3)c(Nc3ccc4nccnc4c3N(C)S(C)(=O)=O)n2)c(OC)cc1C(=O)N1CCC(N2CCN(C)CC2)CC1 please.
Reply: 50 to 500 nM

Ask: Again, but for COc1nc(N2CCC(N3CCN(C)CC3)CC2)c(C)cc1Nc1nc(Nc2ccc3nccnc3c2N(C)S(C)(=O)=O)c2[nH]ccc2n1
Reply: 500 to 2500 nM

Ask: Now the same for CN1CCN(C2CCN(c3ccc(Nc4ncc(Br)c(Nc5ccc6nccnc6c5NS(C)(=O)=O)n4)c(F)c3F)CC2)CC1
Reply: ≤ 50 nM

Ask: Follow-up entry: COc1ccc(N2CCC(O)CC2)cc1Nc1ncc(Br)c(Nc2ccc3nccnc3c2N(C)S(=O)(=O)C2CC2)n1
Reply: ≤ 50 nM

Ask: Then COc1cc(N2CCN(C)CC2)c(C)cc1Nc1nc(Nc2ccc3nccnc3c2N(C)S(C)(=O)=O)c2sccc2n1 ?
Reply: 50 to 500 nM

Ask: Consider next the compound CCN(c1c(Nc2nc(Nc3cc(N4CCC(O)CC4)ccc3OC)ncc2Cl)ccc2nccnc12)S(C)(=O)=O in the same way.
Reply: ≤ 50 nM

Ask: Please answer likewise for CCc1cc(Nc2nc(Nc3ccc4nccnc4c3N(C)S(C)(=O)=O)c3[nH]ccc3n2)c(OC)nc1N1CCC(N2CCN(C)CC2)CC1
Reply: 50 to 500 nM

Ask: Also C=Cc1cc(Nc2nc(Nc3ccc4nccnc4c3N(C)S(C)(=O)=O)c3cc[nH]c3n2)c(OC(F)(F)F)cc1N1CCC(N2CCN(C)CC2)CC1 ?
Reply: ≤ 50 nM

Ask: Now this one: COc1cc(N2CCC(N3CCN(C)CC3)CC2)c(C(C)C)cc1Nc1ncc(C#N)c(Nc2ccc3nccnc3c2N(C)S(C)(=O)=O)n1
Reply: 50 to 500 nM

Ask: Now try COc1cc(N2CCC(N(C)C)CC2)c(C)cc1Nc1nc(Nc2ccc3nccnc3c2N(C)S(C)(=O)=O)c2[nH]ccc2n1 .
Reply: 50 to 500 nM

Ask: Same question for COc1cc(N2CCC(N3CCN(C)CC3)CC2)ccc1Nc1ncc(Cl)c(Nc2ccc3nccnc3c2N(C2CC2)S(C)(=O)=O)n1 please.
Reply: ≤ 50 nM

Ask: Please give the result for COc1ccc(N2CCC(O)CC2)cc1Nc1nc(Nc2ccc3nccnc3c2N(C)S(C)(=O)=O)c2cc[nH]c2n1 too.
Reply: ≤ 50 nM

Ask: Follow-up item: CCc1cc(Nc2ncc(OC)c(Nc3ccc4nccnc4c3N(C)S(C)(=O)=O)n2)c(OC)cc1N1CCC(N(C)C)C1 (stereo not shown)
Reply: ≤ 50 nM
